B1: glmS ribozyme (parent)
chain: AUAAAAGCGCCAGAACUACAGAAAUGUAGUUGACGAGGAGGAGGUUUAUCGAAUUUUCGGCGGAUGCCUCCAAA

# Variants of: B1
# Assay Text: self-cleavage kobs at 160 uM GlcN6P; higher = faster cleavage; RNA array
# Conditions: with glucosamine-6-phosphate
Fewer inactive variants are shown than the library holds.
Value Type: self-cleavage kobs at 160 uM GlcN6P

INPUT: # get_value(readout='self-cleavage kobs at 160 uM GlcN6P', item= C11A A52G C58G )
OUTPUT: < 1e-05 s⁻¹

INPUT: Quick check: self-cleavage kobs at 160 uM GlcN6P of A33U G41U A52U ?
OUTPUT: < 1e-05 s⁻¹

INPUT: If you can, please state the reported self-cleavage kobs at 160 uM GlcN6P value of C10G A42G .
OUTPUT: < 1e-05 s⁻¹

INPUT: Bench note: what self-cleavage kobs at 160 uM GlcN6P did A39U G44A C71A show?
OUTPUT: < 1e-05 s⁻¹

INPUT: Param item = C8U G29U C34U U46G A53G ; retrieve measured self-cleavage kobs at 160 uM GlcN6P.
OUTPUT: < 1e-05 s⁻¹
